Catalogue of compounds with associated TGI
tested on: T-47D breast; test: NCI tumour cell line growth inhibition, 48 h
recorded.endpoint: TGI

compound | recorded.endpoint | result
COc1ccc(-c2nc(N3CCOCC3)c3sc(CN(C)c4ncc(C(=O)NO)cn4)cc3n2)cn1 | TGI | 0.0332 µM
CCCC1=C(C(=O)OCC)C(c2ccccc2OC)C(C#N)=C(N)O1 (stereo unspecified) | TGI | > 100 µM
COC(=O)c1cc(C)ccc1C1CN=NC12Cc1cccc(C)c1C2=O (stereo unspecified) | TGI | 35.6 µM
NCCCCN(CCCN)Cc1ccc2ccccc2c1 | TGI | > 100 µM
Cc1cc(C)c2nc3nc(C)cc(C)c3c(N)c2c1 | TGI | 34.2 µM
COc1ccc2c(c1)/C(=C\c1c(Cl)n(C)c3ccccc13)C(=O)N2 | TGI | 31.4 µM
C/C(=N\Nc1nc2ccccc2s1)c1cnccn1 | TGI | > 100 µM
Cn1c(=O)cc(N=Nc2ccc(Cl)c(Cl)c2)[nH]c1=O | TGI | > 100 µM
Cc1cc2cc3cc(C)c(N)cc3[n+](C)c2cc1N | TGI | 5.44 µM
OCC1OC2OC3C(CO)OC(OC4C(CO)OC(OC5C(CO)OC(OC6C(CO)OC(OC7C(CO)OC(OC1C(O)C2O)C(O)C7O)C(O)C6O)C(O)C5O)C(O)C4O)C(O)C3O (stereo unspecified) (tested in a mixture with another compound) | TGI | > 100 µM
O=C(O)c1ccccc1-c1ccccc1C(=O)Nc1ccc2c(c1)[nH]c(=O)c1ccccc12 | TGI | > 100 µM
CCOC(=O)c1c[nH]cc1-c1cn(S(=O)(=O)c2ccccc2)cc1C | TGI | > 100 µM
COc1cc(C2CC(c3ccccc3)=NN2C(C)=O)cc(OC)c1OC (stereo unspecified) | TGI | > 100 µM
OCCCc1cc(O)c2c(c1)C(CO)C(c1ccc(O)c(O)c1)O2 (stereo unspecified) | TGI | > 100 µM
CNCCCNC1(c2cc3ccccc3s2)CCCCC1 | TGI | 11.9 µM
CC1C2(C)OC(=N)C(C#N)(C(C)O2)C1(C#N)C#N (stereo unspecified) | TGI | > 100 µM
O=[N+]([O-])c1cc(-c2nnc(C34CC5CC(CC(C5)C3)C4)o2)cc([N+](=O)[O-])c1 | TGI | > 100 µM
CCC(c1ccc2cc(O)ccc2c1)C(C)(C)C(=O)O (stereo unspecified) | TGI | > 100 µM
Clc1ccc(C2=C(c3ccccc3)C(c3ccc(Cl)cc3)N3C(=N[C@H]4CCCC[C@@H]43)N2)cc1 (stereo partly specified) | TGI | 31.4 µM
CS/C(=N\S(=O)(=O)c1cc(C)c(Cl)cc1Cl)NNc1cnc2ccccc2n1 | TGI | > 100 µM
O=C1NC(c2c(Cl)cccc2Cl)Nc2ccccc21 (stereo unspecified) | TGI | > 100 µM
